B1: Lysozyme C, P61626 (parent)
chain: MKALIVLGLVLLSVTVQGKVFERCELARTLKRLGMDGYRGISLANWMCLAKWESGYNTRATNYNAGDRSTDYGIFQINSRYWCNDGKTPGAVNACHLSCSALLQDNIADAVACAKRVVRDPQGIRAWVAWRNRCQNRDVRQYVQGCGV

# Variants of: B1
# measurement-conditions: Homo sapiens; pH 2.72; Thermal; DSC; glycine 0.05 M; reversible: yes; structure 1LZ1; whole UniProt chain shown
quantity-kind: Tm (°C)
Give bare numbers, in °C.

mutation=V117A quantity_kind=Tm measured=45.3

Respectfully, I request Tm for each entry included below.
1. V118A
2. V139A
3. V143A

(A)
1: 46.8; 2: 40.3; 3: 42.8
